Tested on: biotinyl-Trp-oxazolone
Assay: self-aminoacylation, catalytic enhancement (BWO) (fold over background); higher = more active; k-Seq, kA / k0A0; sequences stand for … in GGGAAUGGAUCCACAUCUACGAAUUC…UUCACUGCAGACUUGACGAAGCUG
Variants at the floor of the assay were thinned out.
Experimental Readout: self-aminoacylation

| Record Sequence | Value Measured |
| --- | --- |
| AAGUUUGCUAAUAGGCCCAAG [Fam3.1 aminoacylation ribozyme variant] | 1.2 |
| AAGCUUGCUACUAGUCGCAAG [Fam3.1 aminoacylation ribozyme variant] | 2.23 |
| AUUAUCCUGUUCAUCGAGUGA [Fam2.1 aminoacylation ribozyme variant] | 7.47 |
| UUUACCCUGGUCAUCGAGUAA [Fam2.1 aminoacylation ribozyme variant] | 11.8 |
| CUUACCGUGGUCAUCGAGUGA [Fam2.1 aminoacylation ribozyme variant] | 3.87 |
| AUUGCCCUGGUCAUUGAGUGA [Fam2.1 aminoacylation ribozyme variant] | 9.51 |
| AUACACCAAGGUCAUCGGGUG [Fam2.2 aminoacylation ribozyme variant] | 6.72 |
| AUUACCCUGCUCAUCUAGUGA [Fam2.1 aminoacylation ribozyme variant] | 8.05 |
| CUAAUUCAAACAAUGGGUCUG [Fam1A.1 aminoacylation ribozyme variant] | 0.468 |
| CUACUUCAAACAAUCGGUCAA [Fam1A.1 aminoacylation ribozyme variant] | 2.24 |
| CCACGCCUCAAGCAAUCGGUC [Fam1B.1 aminoacylation ribozyme variant] | 6.73 |
| AAGUUUGCUAAUAGUCGUAAA [Fam3.1 aminoacylation ribozyme variant] | 1.01 |
| CCACGCUUCAAGCAAUCGGAC [Fam1B.1 aminoacylation ribozyme variant] | 1.24 |
| AUUACCCUGGUCAUCGCCUGA [Fam2.1 aminoacylation ribozyme variant] | 3.69 |
| CAACUUCAAGCAAUCGGUCUG [Fam1A.1 aminoacylation ribozyme variant] | 20.5 |
| AAGUUUGGUAAUAGUCCCAAG [Fam3.1 aminoacylation ribozyme variant] | 1.04 |
| AAUUAUGCUAAUAGUCGCAAG [Fam3.1 aminoacylation ribozyme variant] | 2.57 |
| AAUCACCUGGGUCAUCGGGUG [Fam2.2 aminoacylation ribozyme variant] | 7.63 |
| AUUGCCCUGGUCAUCGAGUGA [Fam2.1 aminoacylation ribozyme variant] | 60 |
| CCACUUCAAACGAUCGGUCUG [Fam1A.1 aminoacylation ribozyme variant] | 2.62 |
| UAGUUUGCUAAUAGUCCCAAG [Fam3.1 aminoacylation ribozyme variant] | 1.37 |
| CUACUUCAAACAAUCGGGGUG [Fam1A.1 aminoacylation ribozyme variant] | 3.36 |
| UUACUUGAAACAAUCGGUCUG [Fam1A.1 aminoacylation ribozyme variant] | 0.889 |

###

System: biotinyl-Met-oxazolone
Assay: self-aminoacylation, catalytic enhancement (BMO) (fold over background); higher = more active; k-Seq, kA / k0A0; sequences stand for … in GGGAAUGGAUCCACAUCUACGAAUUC…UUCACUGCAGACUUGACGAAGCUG
Fewer inactive variants are shown than the library holds.

| Record Sequence | self-aminoacylation |
| --- | --- |
| UAGUUUGCUAAUAGUGGCAAG [Fam3.1 aminoacylation ribozyme variant] | 0.891 |
| AUUACUCUGUUCAUCGAGUGA [Fam2.1 aminoacylation ribozyme variant] | 2.88 |
| AUCCACCUAGGUCAUCCGGUG [Fam2.2 aminoacylation ribozyme variant] | 7.38 |
| AUUCACCUAGGUCGGCGGGUG [Fam2.2 aminoacylation ribozyme variant] | 6.63 |
| CUUCACCUAGGUCUUCGGGUG [Fam2.2 aminoacylation ribozyme variant] | 6.17 |
| AUUACCCUGGUCAGCCAGUGA [Fam2.1 aminoacylation ribozyme variant] | 9.13 |
| CCACACAUCAAGCAAUGGGUC [Fam1B.1 aminoacylation ribozyme variant] | 0.97 |
| AAGCUUGCUAAUAGUCGCGAG [Fam3.1 aminoacylation ribozyme variant] | 3.36 |
| AUUCGCCUAGGUCAUCGGGAG [Fam2.2 aminoacylation ribozyme variant] | 1.51 |
| CCACACUUCUAGCAAUCAGUC [Fam1B.1 aminoacylation ribozyme variant] | 0.648 |
| CUACUUCAAAGAAUCGGUUUG [Fam1A.1 aminoacylation ribozyme variant] | 0.933 |
| AUUACUCUGGUCACCGAGUGA [Fam2.1 aminoacylation ribozyme variant] | 7.28 |
| CCAAACUUCAAGCAAUCGGUC [Fam1B.1 aminoacylation ribozyme variant] | 1.02 |
| GCACACUUCAAACAAUCGGUC [Fam1B.1 aminoacylation ribozyme variant] | 2.13 |
| CUACUUCAAACAAUCGGGAUG [Fam1A.1 aminoacylation ribozyme variant] | 0.844 |
| CUAUUUCGAACAAUCGGUCUG [Fam1A.1 aminoacylation ribozyme variant] | 0.799 |
| AAGCUUGCUAAUAGUCGCACG [Fam3.1 aminoacylation ribozyme variant] | 1.29 |

###

System: biotinyl-Trp-oxazolone
Assay: self-aminoacylation, catalytic enhancement (BWO) (fold over background); higher = more active; k-Seq, kA / k0A0; sequences stand for … in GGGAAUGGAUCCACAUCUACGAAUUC…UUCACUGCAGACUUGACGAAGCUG
Variants at the floor of the assay were thinned out.
Please enter TRUE where self-aminoacylation is greater than or equal to 3, and FALSE where it is lower.

| Record Sequence | Cat |
| --- | --- |
| AUUACCCUGGACAUCCAGUGA [Fam2.1 aminoacylation ribozyme variant] | TRUE |
| AUUACCCUGAUCAUCGAGUGG [Fam2.1 aminoacylation ribozyme variant] | FALSE |
| AAGUUUCCUAAUAGUCGCAAC [Fam3.1 aminoacylation ribozyme variant] | FALSE |
| AUUCACCUAGGUCUUCUGGUG [Fam2.2 aminoacylation ribozyme variant] | TRUE |
| CCACUAUUCAAGCAAUCGGUC [Fam1B.1 aminoacylation ribozyme variant] | FALSE |
| AUUACCCUCGUCAUCGCGUGA [Fam2.1 aminoacylation ribozyme variant] | TRUE |
| CUACUAGAAACAAUCGGUCUG [Fam1A.1 aminoacylation ribozyme variant] | FALSE |
| CUACUUCAAGCAACCGGUCUG [Fam1A.1 aminoacylation ribozyme variant] | FALSE |
| UUUCACCUAUGUCAUCGGGUG [Fam2.2 aminoacylation ribozyme variant] | TRUE |
| CAACUUCAAAAAAUCGGUCUG [Fam1A.1 aminoacylation ribozyme variant] | TRUE |
| GUACUUCAAACAAUUGGUCUG [Fam1A.1 aminoacylation ribozyme variant] | FALSE |
| CUACUUCAAAAAAUCAGUCUG [Fam1A.1 aminoacylation ribozyme variant] | FALSE |
| AAGUUUGUUAAUAGUCGCAAU [Fam3.1 aminoacylation ribozyme variant] | FALSE |
| CAACACUUGAAGCAAUCGGUC [Fam1B.1 aminoacylation ribozyme variant] | FALSE |
| CCCCACUUCAAGCAAUCGGUU [Fam1B.1 aminoacylation ribozyme variant] | TRUE |
| AUUCUCCUAGGUCAUCGCGUG [Fam2.2 aminoacylation ribozyme variant] | TRUE |

###

Tested on: biotinyl-Val-oxazolone
Experiment: self-aminoacylation, catalytic enhancement (BVO) (fold over background); higher = more active; k-Seq, kA / k0A0; sequences stand for … in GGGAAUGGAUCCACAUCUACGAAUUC…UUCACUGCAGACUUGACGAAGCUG
This sample holds only a part of the variants without activity.
Measured self-aminoacylation by item

| Record Sequence | self-aminoacylation |
| --- | --- |
| CUACUUCAAACAAUCGGUCCA [Fam1A.1 aminoacylation ribozyme variant] | 0.757 |
| AUUCAACUAGGUCCUCGGGUG [Fam2.2 aminoacylation ribozyme variant] | 3.32 |
| CUAUUUCGAACAAUCGGUCUG [Fam1A.1 aminoacylation ribozyme variant] | 0.793 |
| CCACACUACAAGCAACCGGUC [Fam1B.1 aminoacylation ribozyme variant] | 0.674 |

###

Tested on: biotinyl-Met-oxazolone
Assay: self-aminoacylation, catalytic enhancement (BMO) (fold over background); higher = more active; k-Seq, kA / k0A0; sequences stand for … in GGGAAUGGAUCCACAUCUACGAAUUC…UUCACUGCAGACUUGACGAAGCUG
Fewer inactive variants are shown than the library holds.
Would you please tag the item criterion met when its self-aminoacylation is 1 or above, and criterion not met when it is below?

| Record Sequence | Test System | Cat |
| --- | --- | --- |
| CUACACUUCAUGCAAUCGGUC [Fam1B.1 aminoacylation ribozyme variant] | biotinyl-Met-oxazolone | criterion not met |
| CCACACUUGACGCAAUCGGUC [Fam1B.1 aminoacylation ribozyme variant] | biotinyl-Met-oxazolone | criterion met |
| CCACACUUUAAGUAAUCGGUC [Fam1B.1 aminoacylation ribozyme variant] | biotinyl-Met-oxazolone | criterion not met |
| AAGUUAGCUAAUAGUCGCAAA [Fam3.1 aminoacylation ribozyme variant] | biotinyl-Met-oxazolone | criterion met |
| AAGUCUGCUAAUAGUCUCAAG [Fam3.1 aminoacylation ribozyme variant] | biotinyl-Met-oxazolone | criterion met |
| AUUGGCCUAGGUCAUCGGGUG [Fam2.2 aminoacylation ribozyme variant] | biotinyl-Met-oxazolone | criterion met |
| AAGUUUGCUAAUAUUCGCAGG [Fam3.1 aminoacylation ribozyme variant] | biotinyl-Met-oxazolone | criterion met |
| AAGUUCGCUAAAAGUCGCAAG [Fam3.1 aminoacylation ribozyme variant] | biotinyl-Met-oxazolone | criterion met |
| AUUCACGUAGCUCAUCGGGUG [Fam2.2 aminoacylation ribozyme variant] | biotinyl-Met-oxazolone | criterion met |
| AUUUCCCUGGUCAUAGAGUGA [Fam2.1 aminoacylation ribozyme variant] | biotinyl-Met-oxazolone | criterion met |
| AUUCCCCUAGGUCAUCGGGUC [Fam2.2 aminoacylation ribozyme variant] | biotinyl-Met-oxazolone | criterion met |
| AUUAGCCUGUUCAUCGAGUGA [Fam2.1 aminoacylation ribozyme variant] | biotinyl-Met-oxazolone | criterion met |
| AGUCAACUAGGUCAUCGGGUG [Fam2.2 aminoacylation ribozyme variant] | biotinyl-Met-oxazolone | criterion met |
| AUUCACCUAGGUCUUCUGGUG [Fam2.2 aminoacylation ribozyme variant] | biotinyl-Met-oxazolone | criterion met |
| CUUCUUCAAACAAUCGGCCUG [Fam1A.1 aminoacylation ribozyme variant] | biotinyl-Met-oxazolone | criterion met |
| AUUCACCUAGGUCUUCGGGUG [Fam2.2 aminoacylation ribozyme variant] | biotinyl-Met-oxazolone | criterion met |
| CAACACUUCAAGCAAUCAGUC [Fam1B.1 aminoacylation ribozyme variant] | biotinyl-Met-oxazolone | criterion not met |
| CAACACUUCAAGCAAUCGCUC [Fam1B.1 aminoacylation ribozyme variant] | biotinyl-Met-oxazolone | criterion met |
| AAGUUUGCUAAUAGUCGGAAG [Fam3.1 aminoacylation ribozyme variant] | biotinyl-Met-oxazolone | criterion met |
| CUAAUUCAAACAAUGGGUCUG [Fam1A.1 aminoacylation ribozyme variant] | biotinyl-Met-oxazolone | criterion not met |
| CAACUUCAAGCAAUCGGUCUG [Fam1A.1 aminoacylation ribozyme variant] | biotinyl-Met-oxazolone | criterion met |
| CAACUUCAAAUAAUCGGUCUG [Fam1A.1 aminoacylation ribozyme variant] | biotinyl-Met-oxazolone | criterion met |
| AUCACCCUGGCCAUCGAGUGA [Fam2.1 aminoacylation ribozyme variant] | biotinyl-Met-oxazolone | criterion met |
| GUUACUCUGGUCAUCGAGUGA [Fam2.1 aminoacylation ribozyme variant] | biotinyl-Met-oxazolone | criterion met |
| AAGUUUGCUAUUGGUCGCAAG [Fam3.1 aminoacylation ribozyme variant] | biotinyl-Met-oxazolone | criterion not met |
| AUUACCCUGGCAAUCGAGUGA [Fam2.1 aminoacylation ribozyme variant] | biotinyl-Met-oxazolone | criterion met |
| AAGUUUGCUAAUCGUCGUAAG [Fam3.1 aminoacylation ribozyme variant] | biotinyl-Met-oxazolone | criterion not met |
| CUACUUCAGACAAUCGUUCUG [Fam1A.1 aminoacylation ribozyme variant] | biotinyl-Met-oxazolone | criterion not met |
| CUCCUUCAUACAAUCGGUCUG [Fam1A.1 aminoacylation ribozyme variant] | biotinyl-Met-oxazolone | criterion not met |
| CCUCACUUCAUGCAAUCGGUC [Fam1B.1 aminoacylation ribozyme variant] | biotinyl-Met-oxazolone | criterion not met |
| AUUGCCCUCGUCAUCGAGUGA [Fam2.1 aminoacylation ribozyme variant] | biotinyl-Met-oxazolone | criterion met |
